Entries annotated with measured melting point

MOLECULE	melting point
O=C(Nc1ccc(Cl)c(C(F)(F)F)c1)Nc1ccc2oc(=O)ccc2c1 [Compound 5g]	253 to 255 °C
O=C(Nc1ccc(F)cc1)Nc1ccc2oc(=O)ccc2c1 [Compound 5c]	249 to 250 °C
O=C(Nc1ccc(C(F)(F)F)cc1)Nc1ccc2oc(=O)ccc2c1 [Compound 5b]	276 to 278 °C
Cc1cc(C)cc(NC(=O)Nc2ccc3oc(=O)ccc3c2)c1 [Compound 5k]	238 to 239 °C
O=C(Nc1ccc2oc(=O)ccc2c1)c1ccc(Cl)c(C(F)(F)F)c1 [Compound 7a]	272 to 273 °C
